- System: male albino rats
- experimentNotes: In vivo toxicity evaluation: serum hepatic and renal biochemical parameters in rats
- Set-up: species or system rat
- particulars: rat serum; 20 mg/kg/day orally twice weekly for 6 weeks
- Description: Before the assessment of the anticancer activity of the compounds, in the present study, we examined their toxicity in vivo on normal tissues. Male albino rats (150 g average weight) were purchased from the animal house of the Institute of Graduate Studies and Research, Alexandria University, Egypt. […] Liver enzymes and other liver biomarkers together with creatinine and urea were measured (Table 1). […]
Below, each of the compounds is paired with its reported Albumin value.
# output: bare number, implied unit g/dL

Examples from the recorded data:
Albumin lookup needed for "COc1ccc(/C=N/Nc2ncnc3c2cnn3-c2ccccc2)cc1OC" , thanks.
4.6

Endpoint output: Albumin of "COc1cc(C=NNc2ncnc3c2cnn3-c2ccccc2)cc(OC)c1OC" . Value?
4.6

Next compound, please.
Form field: reported Albumin of "COc1ccc(C=NNc2ncnc3c2cnn3-c2ccccc2)cc1"
4.4
